The values you see were collected from patent US10221179B2.

Provide the reported melting point of each item.

1. Cn1c(=O)c2cc(S(C)(=O)=O)ccc2n2nc(-c3ccnc(C(F)(F)F)c3)cc12 : > 250 °C

Give one value of melting point per listed compound.
1. Cn1c(=O)c2ccc(N3CCC(O)CC3)cc2n2nc(-c3ccnc(C(F)F)c3)cc12
2. Cn1c(=O)c2ccc(F)cc2n2nc(-c3ccnc(C(F)F)c3)cc12

1. > 250 °C
2. 220 to 226 °C

# input compound: Cn1c(=O)c2cc(N)ccc2n2nc(-c3ccnc(C(F)(F)F)c3)cc12 ; wanted: its melting point
245 to 250 °C

----------
- TESTED TARGET: human mGluR3 (hmGluR3) (Homo sapiens, UniProt Q14832)
- Sequence (Q14832 23-879): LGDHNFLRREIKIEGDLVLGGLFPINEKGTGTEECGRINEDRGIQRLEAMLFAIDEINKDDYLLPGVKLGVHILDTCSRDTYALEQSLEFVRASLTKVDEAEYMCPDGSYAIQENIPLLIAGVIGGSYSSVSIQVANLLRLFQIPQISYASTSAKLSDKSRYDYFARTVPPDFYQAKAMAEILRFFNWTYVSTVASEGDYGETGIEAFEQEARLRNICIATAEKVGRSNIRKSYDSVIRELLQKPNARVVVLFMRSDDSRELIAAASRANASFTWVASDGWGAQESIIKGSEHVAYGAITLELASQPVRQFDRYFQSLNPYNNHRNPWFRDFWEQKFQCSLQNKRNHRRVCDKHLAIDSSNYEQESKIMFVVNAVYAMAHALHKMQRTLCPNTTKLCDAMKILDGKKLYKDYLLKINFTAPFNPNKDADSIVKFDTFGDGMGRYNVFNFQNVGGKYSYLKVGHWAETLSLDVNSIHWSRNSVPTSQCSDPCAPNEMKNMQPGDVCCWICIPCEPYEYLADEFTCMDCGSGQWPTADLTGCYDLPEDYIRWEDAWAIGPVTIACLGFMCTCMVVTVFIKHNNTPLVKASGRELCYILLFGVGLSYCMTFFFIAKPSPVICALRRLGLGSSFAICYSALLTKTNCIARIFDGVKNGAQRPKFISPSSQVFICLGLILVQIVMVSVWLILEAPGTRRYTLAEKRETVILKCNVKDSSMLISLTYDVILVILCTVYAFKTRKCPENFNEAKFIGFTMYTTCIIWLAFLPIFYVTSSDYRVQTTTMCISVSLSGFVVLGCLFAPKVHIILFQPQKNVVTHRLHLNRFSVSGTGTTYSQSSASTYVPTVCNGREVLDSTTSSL
- TEST SUMMARY: Ca++ functional assay, human mGluR3 transiently over-expressed in HEK-293 cells (agonist and negative allosteric modulator modes)
- CONDITIONS USED: glutamate at EC80, intracellular calcium (Fluo4AM)
pIC50: −log10 of the molar value.
Provide the reported pIC50 of each item.

1) C=Cc1cc(-c2cc3n(C)c(=O)c4ccccc4n3n2)ccn1 : < 6.00

Query for human mGluR3 (hmGluR3) (Homo sapiens, UniProt Q14832): what pIC50 does the record show for Cn1c(=O)c2ccccc2n2nc(-c3ccnc(Cl)c3)cc12 ?
< 6.00

----------
Provide the reported melting point of each item.

1) Cn1c(=O)c2ccc(OCCCO)cc2n2nc(-c3ccnc(C(F)(F)F)c3)cc12 [Example 111] : 223 to 226 °C

Give one value of melting point per listed compound.
1. Cl.Cn1c(=O)c2ccc(N3CCNCC3)cc2n2nc(-c3ccnc(C(F)(F)F)c3)cc12
2. CNc1ccc2c(=O)n(C)c3cc(-c4ccnc(C(F)(F)F)c4)nn3c2c1 [Example 61]

> 250 °C
> 250 °C

----------
- TESTED TARGET: human mGluR2 (hmGluR2) (Homo sapiens, UniProt Q14416)
- Construct: expressed in transfected cells; host or cells: HEK-293 cells, transient co-transfection by electroporation
- Sequence (Q14416 19-872): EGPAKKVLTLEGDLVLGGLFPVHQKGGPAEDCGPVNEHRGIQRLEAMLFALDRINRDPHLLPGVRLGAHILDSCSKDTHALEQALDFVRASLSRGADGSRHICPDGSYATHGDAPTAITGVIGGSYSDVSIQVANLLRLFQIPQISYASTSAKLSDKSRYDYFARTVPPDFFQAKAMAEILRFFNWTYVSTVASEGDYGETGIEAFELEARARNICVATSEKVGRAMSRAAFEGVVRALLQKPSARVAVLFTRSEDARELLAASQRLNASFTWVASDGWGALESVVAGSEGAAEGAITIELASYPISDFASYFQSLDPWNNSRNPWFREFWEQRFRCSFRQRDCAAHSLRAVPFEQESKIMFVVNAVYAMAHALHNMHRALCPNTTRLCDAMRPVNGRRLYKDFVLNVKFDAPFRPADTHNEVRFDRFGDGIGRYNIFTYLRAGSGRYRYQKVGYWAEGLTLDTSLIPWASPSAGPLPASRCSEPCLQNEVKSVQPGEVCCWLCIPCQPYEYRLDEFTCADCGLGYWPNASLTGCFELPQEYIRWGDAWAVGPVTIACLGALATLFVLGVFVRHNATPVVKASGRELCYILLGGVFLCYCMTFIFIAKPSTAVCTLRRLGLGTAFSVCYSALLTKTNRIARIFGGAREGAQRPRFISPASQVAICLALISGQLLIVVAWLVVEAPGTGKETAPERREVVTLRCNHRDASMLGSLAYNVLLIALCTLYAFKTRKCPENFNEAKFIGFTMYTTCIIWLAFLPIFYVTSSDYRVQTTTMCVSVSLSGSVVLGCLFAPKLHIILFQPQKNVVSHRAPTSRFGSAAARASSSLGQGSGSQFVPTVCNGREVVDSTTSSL
- TEST SUMMARY: Ca++ functional assay, human mGluR2 transiently over-expressed in HEK-293 cells (agonist and negative allosteric modulator modes)
- Type: cell-based
- CONDITIONS USED: glutamate at EC80, intracellular calcium (Fluo4AM), read-out: hmGluR2 negative allosteric modulator activity IC50
RECORDED METRIC: IC50

Give one value of IC50 per listed compound.
1. COc1cc2c(=O)n(C)c3cc(-c4ccnc(C(F)(F)F)c4)nn3c2cc1OC
2. Cn1c(=O)c2ccc(Br)cc2n2nc(-c3ccnc(C(F)(F)F)c3)cc12
3. Cn1c(=O)c2cc(Cl)ccc2n2nc(-c3ccnc(C4CC4)c3)cc12
4. Cn1c(=O)c2ccc(C(N)=O)cc2n2nc(-c3ccnc(C(F)(F)F)c3)cc12

1: < 1000 nM; 2: < 1000 nM; 3: < 1000 nM; 4: < 1000 nM

----------
Provide the reported melting point of each item.

Previously resolved entries follow.
1) Cn1c(=O)c2ccccc2n2nc(-c3ccnc(C#N)c3)cc12 : > 250 °C
2) CN(C)c1ccc2c(c1)c(=O)n(C)c1cc(-c3ccnc(C(F)(F)F)c3)nn21 : > 250 °C
3) COc1ccc2c(c1)c(=O)n(C)c1cc(-c3ccnc(F)c3)nn21 : 235 to 245 °C
4) Cn1c(=O)c2c(F)cccc2n2nc(-c3ccnc(C(F)(F)F)c3)cc12 : > 250 °C
5) Cn1c(=O)c2ccccc2n2nc(-c3ccnc(OC4CCC4)c3)cc12 : 218 to 222 °C
6) Cn1c(=O)c2ccc(N3CCC(C)(O)CC3)cc2n2nc(-c3ccnc(C(F)(F)F)c3)cc12 : > 250 °C
7) Cn1c(=O)c2ccccc2n2nc(-c3ccnc(C(C)(F)F)c3)cc12 : 196 to 207 °C
8) Cn1c(=O)c2ccccc2n2nc(-c3ccnc(OCC(F)F)c3)cc12 : 209 to 213 °C

Give one value of melting point per listed compound.
1. COC1CCN(c2ccc3c(=O)n(C)c4cc(-c5ccnc(C(F)(F)F)c5)nn4c3c2)CC1
2. Cn1c(=O)c2cc(NC3CCC3)ccc2n2nc(-c3ccnc(C(F)(F)F)c3)cc12
3. [2H]C([2H])([2H])Nc1ccc2c(c1)c(=O)n(C)c1cc(-c3ccnc(C(F)(F)F)c3)nn21
4. CNC(=O)c1ccc2c(=O)n(C)c3cc(-c4ccnc(C(F)(F)F)c4)nn3c2c1
5. Cl.Cn1c(=O)c2ccccc2n2nc(-c3ccnc(C4CCCC4)c3)cc12
6. Cn1c(=O)c2ccccc2n2nc(-c3ccnc(OC4COC4)c3)cc12
7. CCOc1ccc2c(c1)c(=O)n(C)c1cc(-c3ccnc(C(F)(F)F)c3)nn21

["> 250 °C", "220 to 225 °C", "> 250 °C", "> 250 °C", "> 250 °C", "219 to 223 °C", "152 to 158 °C"]

Give one value of melting point per listed compound.
1. CCN(CC)C(=O)c1ccc2c(=O)n(C)c3cc(-c4ccnc(C(F)(F)F)c4)nn3c2c1
2. Cn1c(=O)c2cc(F)c(F)cc2n2nc(-c3ccnc(C(F)(F)F)c3)cc12

["240 to 245 °C", "> 206 °C"]
